target: PDGFRβ (Homo sapiens (Human), UniProt P09619); assay: PDGFRβ Kinase Assay; type: biochemical; settings: purified cytoplasmic domain PDGFR-b protein, 36 μM ATP; read-out: PDGFRβ Enzyme Assay (IC50 nM)
Sequence (P09619 554-1106): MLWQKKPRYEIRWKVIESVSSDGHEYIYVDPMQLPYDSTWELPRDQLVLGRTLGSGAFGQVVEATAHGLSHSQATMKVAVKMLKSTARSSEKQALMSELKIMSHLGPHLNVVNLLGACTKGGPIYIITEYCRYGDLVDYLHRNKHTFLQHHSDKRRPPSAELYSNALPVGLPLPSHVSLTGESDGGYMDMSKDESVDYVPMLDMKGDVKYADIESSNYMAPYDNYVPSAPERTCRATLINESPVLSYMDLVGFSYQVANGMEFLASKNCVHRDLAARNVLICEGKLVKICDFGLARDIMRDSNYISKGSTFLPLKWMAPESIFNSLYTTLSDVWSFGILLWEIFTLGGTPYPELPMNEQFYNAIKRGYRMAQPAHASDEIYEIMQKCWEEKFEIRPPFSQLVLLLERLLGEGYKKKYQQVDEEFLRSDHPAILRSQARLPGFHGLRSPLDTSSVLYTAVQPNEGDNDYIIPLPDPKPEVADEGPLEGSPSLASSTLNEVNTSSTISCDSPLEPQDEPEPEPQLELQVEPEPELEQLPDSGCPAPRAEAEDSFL
Documented IC50 across a set of compounds

{"columns": ["COMPOUND", "TARGET OR SYSTEM", "ENDPOINT UNIT", "IC50"],
 "data": [
  ["Cc1ccoc1C(=O)Nc1cccc(C#Cc2cncc(C(=O)N=S(=O)(CCCO)CCCO)c2)c1", "PDGFRβ (Homo sapiens (Human), UniProt P09619)", "nM", 26],
  ["CS(C)(=O)=NC(=O)c1cnc(N)c(C#Cc2cccc(NC(=O)c3ccc(Cl)cc3)c2)c1", "PDGFRβ (Homo sapiens (Human), UniProt P09619)", "nM", 22],
  ["COC(=O)CCCCS(C)(=O)=NC(=O)c1cnc(N)c(C#Cc2cccc(NC(=O)c3ccc(Cl)c(C(F)(F)F)c3)c2)c1 (stereo not drawn)", "PDGFRβ (Homo sapiens (Human), UniProt P09619)", "nM", 25],
  ["COC(=O)CCCCS(C)(=O)=NC(=O)c1cnc(N)c(C#Cc2cccc(NC(=O)c3ccc(OC)c(OC)c3)c2)c1 (stereo not drawn)", "PDGFRβ (Homo sapiens (Human), UniProt P09619)", "nM", 38],
  ["Cc1ccoc1C(=O)Nc1cccc(C#Cc2cc(C(=O)N=S(=O)(CCCO)CCCO)cnc2N)c1", "PDGFRβ (Homo sapiens (Human), UniProt P09619)", "nM", 16],
  ["Cc1cccc(C(=O)Nc2cccc(C#Cc3cncc(C(=O)N=S(=O)(CCCO)CCCO)c3)c2)c1", "PDGFRβ (Homo sapiens (Human), UniProt P09619)", "nM", 6],
  ["Cc1ccoc1C(=O)Nc1cccc(C#Cc2cncc(C(=O)N=S3(=O)CCCC3)c2)c1", "PDGFRβ (Homo sapiens (Human), UniProt P09619)", "nM", 34],
  ["Cc1ccoc1C(=O)Nc1cccc(C#Cc2cc(C(=O)N=S(C)(C)=O)cnc2N)c1", "PDGFRβ (Homo sapiens (Human), UniProt P09619)", "nM", 16],
  ["COC(=O)CCCCS(C)(=O)=NC(=O)c1cnc(N)c(C#Cc2cccc(NC(=O)c3cc(C)ccc3F)c2)c1 (stereo not drawn)", "PDGFRβ (Homo sapiens (Human), UniProt P09619)", "nM", 45],
  ["COC(=O)CCCCS(C)(=O)=NC(=O)c1cnc(N)c(C#Cc2cccc(NC(=O)c3cc(C(F)(F)F)ccc3F)c2)c1 (stereo not drawn)", "PDGFRβ (Homo sapiens (Human), UniProt P09619)", "nM", 40],
  ["COC(=O)CCCC[S@@](C)(=O)=NC(=O)c1cnc(N)c(C#Cc2cccc(NC(=O)c3occc3C)c2)c1", "PDGFRβ (Homo sapiens (Human), UniProt P09619)", "nM", 27],
  ["COC(=O)CCCCS(C)(=O)=NC(=O)c1cnc(N)c(C#Cc2cccc(NC(=O)Nc3cccc(C)c3)c2)c1 (stereo not drawn)", "PDGFRβ (Homo sapiens (Human), UniProt P09619)", "nM", 13],
  ["COC(=O)CCCCS(C)(=O)=NC(=O)c1cnc(N)c(C#Cc2cccc(C(=O)Nc3cccc(C)c3)c2)c1 (stereo not drawn)", "PDGFRβ (Homo sapiens (Human), UniProt P09619)", "nM", 15],
  ["COC(=O)CCCCS(C)(=O)=NC(=O)c1cnc(N)c(C#Cc2cccc(NC(=O)c3occc3C)c2)c1 (stereo not drawn)", "PDGFRβ (Homo sapiens (Human), UniProt P09619)", "nM", 54],
  ["COC(=O)CCCCS(C)(=O)=NC(=O)c1cnc(N)c(C#Cc2cccc(NC(=O)c3cccc(C)c3)c2)c1 (stereo not drawn)", "PDGFRβ (Homo sapiens (Human), UniProt P09619)", "nM", 11]
]}
